All figures here come from patent US11440918B2.

Overview of reported IC50 across a group of compounds:
Test system: SARS-CoV-2 isolate BetaCoV/France/IDF0372/2020 (SARS-CoV-2 Paris)
Protocol Description: SARS-CoV-2 anti-viral assay Paris (viral genomes by RT-qPCR)
Assay type: cell-based
Experimental Conditions: Severe acute respiratory syndrome coronavirus 2; SARS-CoV-2 Paris isolate, 48 hours
Observed Property: IC50 (µM)

| Compound | System Tested | Observed Property | Measured Value |
| --- | --- | --- | --- |
| O=C(Nc1ccc(CN2CCC(O)CC2)cc1)c1ccc(Cl)cc1 | SARS-CoV-2 isolate BetaCoV/France/IDF0372/2020 (SARS-CoV-2 Paris) | IC50 | 1.6 |
| O=C(Nc1ccc(CN2CCCOCC2)cc1)c1ccc(Cl)cc1 | SARS-CoV-2 isolate BetaCoV/France/IDF0372/2020 (SARS-CoV-2 Paris) | IC50 | 0.6 |
| O=C(Nc1ccc(CN2CC3(COC3)C2)cc1)c1ccc(Cl)cc1 | SARS-CoV-2 isolate BetaCoV/France/IDF0372/2020 (SARS-CoV-2 Paris) | IC50 | 7.8 |
| O=C(Nc1ccc(CN2CCC(O)C2)cc1)c1ccc(Cl)cc1 (stereo not shown) | SARS-CoV-2 isolate BetaCoV/France/IDF0372/2020 (SARS-CoV-2 Paris) | IC50 | 3.4 |
| O=C(Nc1ccc(CN2C[C@@H]3COC[C@@H](C3)C2)cc1)c1ccc(Cl)cc1 | SARS-CoV-2 isolate BetaCoV/France/IDF0372/2020 (SARS-CoV-2 Paris) | IC50 | 3.1 |
| O=C(Nc1ccc(CN2CC3(CCOCC3)C2)cc1)c1ccc(Cl)cc1 | SARS-CoV-2 isolate BetaCoV/France/IDF0372/2020 (SARS-CoV-2 Paris) | IC50 | 2.1 |
| O=C(Nc1ccc(CN2C[C@H]3COC[C@H]3C2)cc1)c1ccc(Cl)cc1 | SARS-CoV-2 isolate BetaCoV/France/IDF0372/2020 (SARS-CoV-2 Paris) | IC50 | 1.3 |
| O=C(Nc1ccc(CN2CCOCC2)cc1)c1cnc(Cl)nc1 | SARS-CoV-2 isolate BetaCoV/France/IDF0372/2020 (SARS-CoV-2 Paris) | IC50 | 9.4 |
| O=C(Nc1ccc(CN2CCC3(CCCO3)C2)cc1)c1ccc(Cl)cc1 (stereo not shown) | SARS-CoV-2 isolate BetaCoV/France/IDF0372/2020 (SARS-CoV-2 Paris) | IC50 | 2.9 |
| CN1CCN(Cc2ccc(NC(=O)c3ccc(Cl)cc3)cc2)CC1 | SARS-CoV-2 isolate BetaCoV/France/IDF0372/2020 (SARS-CoV-2 Paris) | IC50 | 3.6 |
